# method-notes: Minimal motor impairment was measured in mouse by rotating rod test upon intraperitoneal administration
# Assay type: toxicity
# condition-description: in vivo, ip
measured-attribute: TD50 (mg/kg)
Reply numerically in mg/kg, unit not repeated.

Known results for compounds:
structure-as-smiles	result
Cc1c(C(=O)CN2CCCC2)c(C)n(C)c1C(=O)c1ccc(Cl)cc1	54.8
Cn1cc(C(=O)CN2CCCCC2)cc1C(=O)c1ccc(Cl)cc1	74.2
Cc1c(C(=O)CN2CCCCC2)c(C)n(C)c1C(=O)c1ccc(Cl)cc1	113
Cl.Cn1cc(C(=O)CN2CCCCCC2)cc1C(=O)c1ccc(Cl)cc1	46.1
Cn1cc(C(=O)CN2CCCC2)cc1C(=O)c1cccc(Cl)c1.[O-][Cl+3]([O-])([O-])O	55.6

Here is another compound to look at.
Fill blank: measured TD50 of the compound O=C(CN1CCOCC1)c1c[nH]c(C(=O)c2ccc(Cl)cc2)c1 is ____.
84.1

----------
# method-notes: Ratio of TD50/ED50; TI indicates Therapeutic index
# condition-description: read-out: TI
measured-attribute: selectivity ratio
Give the figure only, with no unit attached.

Known results for compounds:
structure-as-smiles	result
Cn1cc(C(=O)c2ccc(Cl)cc2)cc1C(=O)CN1CCCCC1	2.36
Cc1c(C(=O)CN2CCCC2)c(C)n(C)c1C(=O)c1ccc(Cl)cc1	3.6
CCN(CC)CC(=O)c1cc(C(=O)c2ccc(OC)cc2)n(C)c1.Cl	1.37
Cl.Cn1cc(C(=O)CN2CCCCCC2)cc1C(=O)c1ccc(Cl)cc1	1.67
Cn1cc(C(=O)CN2CCCC2)cc1C(=O)c1ccc(Cl)cc1	4.89

Here is another compound to look at.
Fill blank: measured selectivity ratio of the compound CCN(CC)CC(=O)c1c(C)c(C(=O)c2ccc(Cl)cc2Cl)n(C)c1C is ____.
3.38

----------
# method-notes: Toxic dose was measured in mouse by rotating rod test
# condition-description: in vivo
measured-attribute: TD50 (mg/kg)
Reply numerically in mg/kg, unit not repeated.

Fill blank: measured TD50 of the compound O=C1NC(=O)C(c2ccccc2)(c2ccccc2)N1 is ____.
42.8

----------
# method-notes: Toxic dose was measured in rat by rotating rod test.
# condition-description: in vivo
measured-attribute: TD50

Fill blank: measured TD50 of the molecule O=C1NC(=O)C(c2ccccc2)(c2ccccc2)N1 is ____.
> 500 mg/kg

----------
# method-notes: Ratio of TD50/ED50; TI indicates Therapeutic index
measured-attribute: selectivity ratio
Give the figure only, with no unit attached.

Fill blank: measured selectivity ratio of the molecule NC(=O)N1c2ccccc2C=Cc2ccccc21 [CARBAMAZEPINE] is ____.
4.93

----------
# method-notes: Ratio of TD50/ED50; TI indicates Therapeutic index
# condition-description: read-out: TI
// selectivity ratio lookup, one value per entry
Give the figure only, with no unit attached.

structure-as-smiles	result
Cn1cc(C(=O)CN2CCCCC2)cc1C(=O)c1ccc(Cl)cc1	3.05

Fill blank: measured selectivity ratio of the compound CCN(CC)CC(=O)c1c(C)c(C(=O)c2ccc(Cl)cc2)n(C)c1C is ____.
3.65

Fill blank: measured selectivity ratio of the compound Cc1c(C(=O)CN2CCOCC2)c(C)n(C)c1C(=O)c1ccc(Cl)cc1 is ____.
2.66

Fill blank: measured selectivity ratio of the compound Cc1c(C(=O)CN2CCCC2)c(C)n(C)c1C(=O)c1ccc(Cl)cc1Cl.Cl is ____.
2.3

Fill blank: measured selectivity ratio of the compound Cl.Cn1cc(C(=O)CN2CCOCC2)cc1C(=O)c1cccc(Cl)c1 is ____.
2.96

Fill blank: measured selectivity ratio of the compound Cn1cc(C(=O)CN2CCCC2)cc1C(=O)c1cccc(Cl)c1.[O-][Cl+3]([O-])([O-])O is ____.
3.38
